Recorded values, source ChEMBL document CHEMBL4373746.

Experiment: Drug concentration in total brain in Wistar Han rat at 1 to 2 mg/kg, iv infused for 10 to 20 hrs by LC-MS/MS analysis
Settings: in vivo
I'd be grateful if you could share measured Ct for these entries.
Expressed in ng/mL, but write only the number.

# Ct of COc1ccc2ncc(F)c([C@@H](O)CC[C@@H]3CCN(CCSc4cccs4)C[C@@H]3C(=O)O)c2c1 = 0.69

# Ct of C[C@H]1C[C@H]2CSC(N)=N[C@@]2(c2cc(C#N)ccc2F)CO1 = 230

# Ct of CC(C)(CC1Cc2ccccc2C1)NC[C@@H](O)COc1cc(C2CC3CC2C2C(C(=O)O)C32)ccc1C#N (stereo partly specified) = 1

# Ct of Cc1nc([C@@H]2CCOC2)c2c(N3CCc4c(c(C5CC5)nn4C)C3)ncnn12 = 52

# Ct of CC(C)n1ncc2c1C(=O)CC1(CCN(C(=O)c3ccc4[nH]nc(C(N)=O)c4c3)CC1)C2 = 0.38

# Ct of C[C@H]1c2cccc(CCC(C)(C)O)c2C[C@H](CO)N1C(=O)Cc1c(Cl)cccc1Cl = 39
